- Assayed System: UniProt Q9NZQ7
- Sequence (Q9NZQ7 19-290): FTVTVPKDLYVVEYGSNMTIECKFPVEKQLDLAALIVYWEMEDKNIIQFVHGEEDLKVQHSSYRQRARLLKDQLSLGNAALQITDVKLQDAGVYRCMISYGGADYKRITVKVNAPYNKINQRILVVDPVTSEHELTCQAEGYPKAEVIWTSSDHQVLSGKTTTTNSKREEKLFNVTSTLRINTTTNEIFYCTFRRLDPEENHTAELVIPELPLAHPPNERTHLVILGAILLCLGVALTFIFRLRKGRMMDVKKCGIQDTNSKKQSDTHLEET
- Test Summary: T cell activation luciferase reporter cell culture system (T Cell Activation Assay)
- Format: cell-based
- Conditions Used: luciferase reporter assay; PD-L1 aAPC/CHO-K1 cells with PD-1 effector Jurkat T cells
Readout Name: EC50 (nM)

{"Mol": "CNCc1ccc(-c2cccc(-c3ccnc(-c4cc(CN5CC[C@H](C(=O)O)C5)cc(OC)c4)c3Cl)c2Cl)nc1OC", "Reading Qualifier": "=", "Test Value": 670}
{"Mol": "Cc1c(NC(=O)c2ccc(CNC[C@@H]3CCC(=O)N3)cn2)cccc1-c1ccnc(-c2ccc(CNC[C@@H]3CCC(=O)N3)c(OC(F)F)c2)c1Cl", "Reading Qualifier": "=", "Test Value": 120}
{"Mol": "COC(=O)C1(NCc2cc(C(F)(F)F)c(N[C@H]3CCc4c(-c5nccc(-c6ccc(CNC[C@@H]7CCC(=O)N7)c(OC)n6)c5Cl)cccc43)nc2OC)CC1", "Reading Qualifier": "≥", "Test Value": 10000}
{"Mol": "COc1nc(-c2cccc(-c3ccnc(-c4cnn(CC5CNC5)c4)c3Cl)c2Cl)ccc1CNC[C@@H]1CCC(=O)N1", "Reading Qualifier": "=", "Test Value": 972}
{"Mol": "CNCc1ccc(-c2cccc(-c3ccnc(-c4ccc(CN5CC6(CNC(=O)C6)C5)c(OC)c4)c3Cl)c2Cl)nc1OC", "Reading Qualifier": "=", "Test Value": 23.5}
{"Mol": "COc1cc(-c2nccc(-c3cccc(-c4ccc5c(CN(C)C6CCN(C(C)=O)CC6)cn(C)c5n4)c3Cl)c2Cl)ccc1CNC1CCOCC1", "Reading Qualifier": "=", "Test Value": 32.6}
